STUDY_TARGET: T1, Ab-1
T1 construct: also called anti-CD28 scFv harbored in Ab-1
T1 sequence (heavy, as listed by the source, chain 1 of 2): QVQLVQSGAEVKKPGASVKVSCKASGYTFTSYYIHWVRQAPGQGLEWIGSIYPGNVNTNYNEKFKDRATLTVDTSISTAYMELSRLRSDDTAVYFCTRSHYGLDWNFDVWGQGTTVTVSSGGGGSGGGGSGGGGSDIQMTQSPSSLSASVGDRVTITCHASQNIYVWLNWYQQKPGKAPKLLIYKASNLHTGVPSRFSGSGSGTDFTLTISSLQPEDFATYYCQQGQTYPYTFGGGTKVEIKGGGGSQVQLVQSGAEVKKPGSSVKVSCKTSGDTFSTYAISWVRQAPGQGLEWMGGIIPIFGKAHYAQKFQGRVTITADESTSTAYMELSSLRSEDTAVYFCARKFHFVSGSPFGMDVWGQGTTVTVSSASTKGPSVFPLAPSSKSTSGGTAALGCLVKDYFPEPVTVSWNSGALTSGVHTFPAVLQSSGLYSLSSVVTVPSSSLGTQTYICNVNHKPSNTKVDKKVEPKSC
T1 sequence (light, as listed by the source, chain 2 of 2): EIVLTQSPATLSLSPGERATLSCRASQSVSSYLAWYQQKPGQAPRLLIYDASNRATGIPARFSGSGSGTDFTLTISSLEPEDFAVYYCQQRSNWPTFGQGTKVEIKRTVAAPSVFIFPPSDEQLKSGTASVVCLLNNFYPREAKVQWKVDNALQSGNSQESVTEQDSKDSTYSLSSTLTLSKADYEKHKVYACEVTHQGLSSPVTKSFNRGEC
TEST_DESCRIPTION: BLI (Octet), 200 nM peptide, 100 nM Ab-1;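 note: association and dissociation phases tracked in real time, with kinetics fitted to a 1:1 interaction model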
No end group written: not given here.
Use fulfilled when the recorded Octet signal is no lower than 0.9; use not fulfilled when it is lower.

Example entries begin here.
BINDER: SDWCPRDLWVHCFA (cysteine pairing not given here; also: biotinylated, site not given here) [Peptide-15]
ASSIGNED_LABEL: not fulfilled
//
BINDER: LDWCPRDLWVHCFA (cysteine pairing not given here; also: biotinylated, site not given here) [Peptide-11]
ASSIGNED_LABEL: fulfilled
//
BINDER: IDWCPRDLWVHCFA (cysteine pairing not given here; also: biotinylated, site not given here) [Peptide-10]
ASSIGNED_LABEL: not fulfilled
//
BINDER: MDWCPRDLWVHCFA (cysteine pairing not given here; also: biotinylated, site not given here) [Peptide-1]
ASSIGNED_LABEL: fulfilled
//
BINDER: FDWCPRDLWVHCFA (cysteine pairing not given here; also: biotinylated, site not given here) [Peptide-13]
ASSIGNED_LABEL: fulfilled
//
BINDER: DDWCPRDLWVHCFA (cysteine pairing not given here; also: biotinylated, site not given here) [Peptide-5]
ASSIGNED_LABEL: not fulfilled
//
BINDER: QDWCPRDLWVHCFA (cysteine pairing not given here; also: biotinylated, site not given here) [Peptide-6]
ASSIGNED_LABEL: fulfilled
//
BINDER: YDWCPRDLWVHCFA (cysteine pairing not given here; also: biotinylated, site not given here) [Peptide-18]
ASSIGNED_LABEL: not fulfilled

Moving on to the next binder.
Does Octet signal meet or surpass 0.9 for NDWCPRDLWVHCFA (cysteine pairing not given here; also: biotinylated, site not given here) [Peptide-4] ? not fulfilled
